Quick reference: composite z-score of the listed items.
Biological target: Neurogenic locus notch homolog protein 2 (Homo sapiens)
Assay: Notch2 binders on small-molecule microarrays, primary screen, biochemical, small-molecule microarray, 635 nm fluorescence, stem cell growth factors (AID 1073)
Settings: Notch2 binding, higher = more signal
Reply briefly: the number, and no unit.

C#CCCCON=C1C[C@@H](O)[C@@H](O)[C@@H]2[C@@H]3C(=O)N([C@@H](C)c4ccccc4)C(=O)[C@@H]3CC[C@@H]12 : -0.351
O=C1C=C[C@@H](O)[C@@H]2[C@@H]3C(=O)N(Cc4ccc5c(c4)OCO5)C(=O)[C@@H]3CC[C@@H]12 : 0.628
CO[C@@H](C(C)C)[C@@H](C)C1OC(=O)CC1O (some centres undefined) : -0.402

Turning now to a further record.
Challenge: Give me measured composite z-score, please, for this compound: O=C(NCCC[N+]1=CC=NC1c1ccccc1)N1CCCc2nc(-c3ccc(Br)cc3)ccc21 (centres undefined)
Response given: 0.576

---

Experiment: small-molecule microarray binders of probe aLefty2, primary screen, biochemical, biotinylated probe, 635/667 nm fluorescence (AID 1094);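 also: score merges spot fluorescence near 667 nm with spot signal-to-noise ratio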
Conditions: higher = more signal
Label FALSE if composite z-score falls below -0.1; label TRUE in every other case.

Answered examples (5):
C=CC[C@@H]1C=C[C@H](ON=CC[C@@H]2C=C[C@H](OC(C)=O)[C@@H](COC(C)=O)O2)[C@@H](CO)O1 : TRUE
CC(C)=NO[C@@H](C)c1cn([C@H](CO)Cc2ccccc2)nn1 : FALSE
CC(=O)OC[C@H]1O[C@H](C#CCC2CCCCC2)C=C[C@@H]1OC(C)=O : FALSE
COC(=O)C1=C(C)N(Cc2ccccc2)C2=C3C(=O)OCC[C@@H]3[C@@](O)(C(=O)OC)C(=O)N2[C@@H]1c1ccccc1 : TRUE
CC(C)=CCCC(C)=CCON=C1C[C@@H](O)[C@@H](O)[C@@H]2[C@@H]3C(=O)N(c4cccc(Oc5ccccc5)c4)C(=O)[C@@H]3CC[C@H]12 : FALSE

Challenge: Could you please find out whether `CC(C)CON=C1C[C@@H](O)[C@@H](O)[C@@H]2[C@@H]3C(=O)N(Cc4ccc5c(c4)OCO5)C(=O)[C@@H]3CC[C@@H]12` has composite z-score that meets -0.1 or exceeds it?
Response given: FALSE

Challenge: Kindly determine if composite z-score recorded for `C[C@@H](c1ccccc1)N1C(=O)[C@H]2[C@H]3[C@H](O)[C@H](O)CC(=NOC[C@@H](O)COCc4ccco4)[C@H]3CC[C@H]2C1=O` is above or exactly -0.1.
Response given: TRUE

---

Experiment: small-molecule microarray binders of probe aCHRDL2, primary screen, biochemical, biotinylated probe, 635/667 nm fluorescence (AID 1100)
Conditions: higher = more signal
Listed compounds paired with reported composite z-score
Answer field: number only, no words.

Example compounds with recorded composite z-score:
COC(=O)[C@@H]1CC[C@H](C)[C@@H](c2ccc(Br)cc2)N1C[C@@H](O)CN=[N+]=[N-] : -0.304
CCN(CC)CC(O)CN1CCCCc2nc(C)c(C)cc21 (stereo unspecified) : -0.485
COc1ccc(O[C@H]2C=C[C@@H](c3ccccc3)O[C@@H]2CO)cc1 : -0.116

Challenge: Give recorded composite z-score. C=CC[C@@H]1C=CC(ON=C(C)C)[C@@H](CO)O1 (stereo partly specified)
Response given: -0.127

Challenge: Respond only with composite z-score recorded for `CC(CCN1CCCc2nc(C)c(C)cc21)=NOC[C@@H](O)COCc1ccco1`
Response given: -0.216

Challenge: Give a short answer stating reported composite z-score for Cc1cc2c(nc1C)CCCCN2CC(O)CN1CCCc2nc(-c3ccc(Br)cc3)ccc21 (stereo unspecified) .
Response given: -0.332

Challenge: # return recorded composite z-score for entry COC(=O)[C@H](C)NC(=O)CCC1CC(OC(=O)NCc2cccc3ccccc23)CC2(CCCC(COC(=O)NCCc3ccccc3OC)O2)O1 (stereo partly specified)
Response given: -0.433

Challenge: Indicate the recorded composite z-score value for this compound: CCOC(=O)[C@H](Cc1ccccc1)NC(=O)CCC1CC(OC(=O)NCc2cccc3ccccc23)CC2(CCCC(COC(=O)NCCOc3ccccc3)O2)O1 (stereo partly specified)
Response given: -0.477

Challenge: Please give the documented composite z-score of `CC(=O)OC[C@H]1O[C@@H](ON=C2[C@H]3CCn4c(=O)n(-c5ccccc5)c(=O)n4[C@H]3[C@H](O)[C@@H]3O[C@H]23)[C@H](OC(C)=O)[C@@H](OC(C)=O)[C@@H]1OC(C)=O`
Response given: -0.43

Challenge: Read the entry `COc1ccc(OC[C@H]2CN3[C@@H](CC[C@@H](C)[C@@H]3c3ccc(Br)cc3)C(=O)O2)cc1` and write its reported composite z-score.
Response given: -0.345

Challenge: Note composite z-score for the compound shown: `COC(=O)[C@@H]1CC[C@H](C)[C@@H](c2ccc(C)cc2)N1C(=O)c1ccc(C=NOC[C@@H](O)[C@H]2O[C@@H]3OC(C)(C)O[C@@H]3[C@H]2O)cc1`
Response given: -0.357

Challenge: Respond only with composite z-score recorded for `COc1ccc(O[C@H]2C=C[C@@H](c3ccccc3)O[C@@H]2CON=C(C)CCN2CCCc3nc(C)c(C)cc32)cc1`
Response given: -0.156

Challenge: Please list composite z-score recorded for the compound `COC(=O)CC=C[C@@H](C)[C@@H](C=NOC[C@@H](O)[C@H]1O[C@@H]2OC(C)(C)O[C@@H]2[C@H]1O)OC`
Response given: -0.673

Challenge: Specify measured composite z-score for `CCOC(=O)CCN1C(=O)[C@H]2[C@H]3[C@H](O)[C@H](O)CC(=NOCC=C(C)CCC=C(C)C)[C@H]3CC[C@H]2C1=O` .
Response given: -0.154

Challenge: Write down composite z-score measured for item `CC(=O)OC[C@H]1O[C@H](CC=NOC[C@@H](O)[C@H]2O[C@@H]3OC(C)(C)O[C@@H]3[C@H]2O)C=C[C@@H]1OC(C)=O`
Response given: -0.351

Challenge: Quote composite z-score reported for `CCN1C(=O)[C@H]2[C@H]3[C@H](O)[C@H](O)CC(=NNC(=O)OCc4ccccc4)[C@@H]3CC[C@H]2C1=O` please.
Response given: 0.78

Challenge: Fill in composite z-score for record `CN1CCc2nc(-c3ccccc3)c(-c3ccccc3)cc2C1`
Response given: -0.225

Challenge: Please give measured composite z-score of the following entry: `CC(=O)OC[C@H]1O[C@H](CC=NOC[C@@H](O)COCc2ccco2)C=C[C@@H]1OC(C)=O`
Response given: -1.06

Challenge: Dear colleague, please send me the reported composite z-score for C[C@@H]1CC[C@H]2C(=O)OC(Cc3ccccc3)CN2[C@H]1c1ccc(Br)cc1 (stereo partly specified) when you can.
Response given: -0.312
